Let's look at some compounds and their measured pIC50.
# Tested on: MES-SA
# test summary: Cytotoxicity against human MES-SA cells assessed as inhibition in cell growth
# Assay type: functional, cell-based
Just so you know, pIC50 here is -log10 of the concentration in molar units; reply with that number alone.

| smiles string | value observed |
| --- | --- |
| CNC(=O)O[C@@H]1[C@@H](/C=C/C(C)=C/C[C@@H]2O[C@H](C)[C@H](NC(=O)/C=C\[C@H](C)OC(C)=O)C[C@@H]2C)O[C@H](OC)C[C@@]12CO2 | 7.12 |
| CC(/C=C/[C@H]1O[C@H](CC(=O)OC(C)(C)C)C[C@@](O)(CCl)[C@@H]1O)=C\C[C@@H]1O[C@H](C)[C@H](NC(=O)/C=C\[C@H](C)OC(=O)C(C)C)C[C@@H]1C | 6.58 |
| CC(=O)O[C@@H](C)/C=C\C(=O)N[C@@H]1C[C@H](C)[C@H](C/C=C(C)/C=C/[C@H]2O[C@H](CCC#N)C[C@@]3(CO3)[C@@H]2O)O[C@@H]1C | 9.09 |
| CC(/C=C/[C@H]1O[C@H](C)C[C@@]2(CO2)[C@@H]1O)=C\C[C@@H]1O[C@H](C)[C@H](NC(=O)/C=C\[C@H](C)OC(=O)N2CCN(C(=O)OC(C)(C)C)CC2)C[C@@H]1C | 8.54 |

API: the following record is the query input.
Q. So what's the measured pIC50 for this one? CO[C@@H]1C[C@@]2(CN2)[C@H](O)[C@@H](/C=C/C(C)=C/C[C@@H]2O[C@H](C)[C@H](NC(=O)/C=C\[C@H](C)OC(C)=O)C[C@@H]2C)O1
A. 9.22

###

Measured IC50 of individual entries
# System: MES-SA
# test summary: Cytotoxicity against human MES-SA cells assessed as inhibition in cell growth
# Type: functional, cell-based
Field: numeric (nM). Do not append units.

Q. Consider the compound shown here: CC(/C=C/[C@H]1O[C@H](CC(=O)O)C[C@@](O)(CCl)[C@@H]1O)=C\C[C@@H]1O[C@H](C)[C@H](NC(=O)/C=C\[C@H](C)OC(=O)C(C)C)C[C@@H]1C [THAILANSTATIN C] What is its recorded IC50?
A. 137

###

# test summary: Cytotoxicity against HEK293T cells assessed as inhibition in cell growth
# Assay type: toxicity, cell-based, HEK-293T
# details: human
Measured pIC50, listed per entry for reference.
The meaning of pIC50 here: minus log10 of the concentration in molar units.

Reference set (4 entries):
| smiles string | value observed |
| --- | --- |
| CC(=O)O[C@@H](C)/C=C\C(=O)N[C@@H]1C[C@H](C)[C@H](C/C=C(C)/C=C/[C@H]2O[C@H](CCO)C[C@@]3(CO3)[C@@H]2O)O[C@@H]1C | 11.15 |
| CO[C@@H]1C[C@@]2(CO2)[C@H](O)[C@@H](/C=C/C(C)=C/C[C@@H]2O[C@H](C)[C@H](NC(=O)/C=C\[C@H](C)OC(=O)N(C)C)C[C@@H]2C)O1 | 10.05 |
| CC(/C=C/[C@H]1O[C@H](CC(=O)NCCC(=O)O)C[C@@]2(CO2)[C@@H]1O)=C\C[C@@H]1O[C@H](C)[C@H](NC(=O)/C=C\[C@H](C)OC(=O)C(C)C)C[C@@H]1C | 8.84 |
| CO[C@@H]1C[C@@]2(CO2)[C@H](O)[C@@H](/C=C/C(C)=C/C[C@@H]2O[C@H](C)[C@H](NC(=O)/C=C\[C@H](C)OC(=O)N3CCCCC3)C[C@@H]2C)O1 | 9.96 |

With those in mind, consider the next molecule.
Q. Tell me the measured pIC50 of CC(/C=C/[C@H]1O[C@H](CC(=O)OC(C)(C)C)C[C@@](O)(CCl)[C@@H]1O)=C\C[C@@H]1O[C@H](C)[C@H](NC(=O)/C=C\[C@H](C)OC(=O)C(C)C)C[C@@H]1C , please.
A. 9.89

###

# test summary: Cytotoxicity against HEK293T cells assessed as inhibition in cell growth
# Assay type: toxicity, cell-based, HEK-293T
# details: human
pIC50: −log10 of the molar value.
Rule: satisfied for pIC50 not less than 10, not satisfied for anything less.

| smiles string | category label |
| --- | --- |
| CC(=O)O[C@@H](C)/C=C\C(=O)N[C@@H]1C[C@H](C)[C@H](C/C=C(C)/C=C/[C@H]2O[C@H](CCN=[N+]=[N-])C[C@@]3(CO3)[C@@H]2O)O[C@@H]1C | satisfied |

Read the next record carefully.
Q. Is it the case that CC(/C=C/[C@H]1O[C@H](CC(=O)OC2CC2)C[C@@]2(CO2)[C@@H]1O)=C\C[C@@H]1O[C@H](C)[C@H](NC(=O)/C=C\[C@H](C)OC(=O)C(C)C)C[C@@H]1C has pIC50 reaching or exceeding 10?
A. not satisfied

###

# Test system: MES-SA
# test summary: Cytotoxicity against human MES-SA cells assessed as inhibition in cell growth
# Assay type: functional, cell-based
Threshold-based label: IC50 under 2 nM gives True, IC50 not under 2 nM gives False.

Some entries whose results are on file:
| compound | tested on | category label |
| --- | --- | --- |
| CC(=O)O[C@@H](C)/C=C\C(=O)N[C@@H]1C[C@H](C)[C@H](C/C=C(C)/C=C/[C@H]2O[C@H](CC(=O)O)C[C@@]3(CO3)[C@@H]2O)O[C@@H]1C [THAILANSTATIN A] | MES-SA | False |
| CO[C@@H]1C[C@@]2(CO2)[C@H](O)[C@@H](/C=C/C(C)=C/C[C@@H]2O[C@H](C)[C@H](NC(=O)/C=C\[C@H](C)NC(=O)C(C)C)C[C@@H]2C)O1 | MES-SA | False |
| CC(=O)O[C@@H](C)/C=C\C(=O)N[C@@H]1C[C@H](C)[C@H](C/C=C(C)/C=C/[C@H]2O[C@H](CC(=O)OC(C)(C)C)C[C@@]3(CO3)[C@@H]2O)O[C@@H]1C | MES-SA | True |
| CC(/C=C/[C@H]1O[C@H](CC(=O)OC2CC2)C[C@@]2(CO2)[C@@H]1O)=C\C[C@@H]1O[C@H](C)[C@H](NC(=O)/C=C\[C@H](C)OC(=O)C(C)C)C[C@@H]1C | MES-SA | False |
| CO[C@@H]1C[C@@]2(CO2)[C@H](O)[C@@H](/C=C/C(C)=C/C[C@@H]2O[C@H](C)[C@H](NC(=O)/C=C\[C@H](C)OC(=O)N(C)C)C[C@@H]2C)O1 | MES-SA | True |
| C=C1C[C@@H](CC(=O)O)O[C@H](/C=C/C(C)=C/C[C@@H]2O[C@H](C)[C@H](NC(=O)/C=C\[C@H](C)OC(C)=O)C[C@@H]2C)[C@H]1O | MES-SA | False |

Q. Given the entry CC(=O)O[C@@H](C)/C=C\C(=O)N[C@@H]1C[C@H](C)[C@H](C/C=C(C)/C=C/[C@H]2O[C@H](CC(=O)OC(C)(C)C)C[C@@](O)(CCl)[C@@H]2O)O[C@@H]1C , would its reported IC50 be below 2 nM?
A. False

Q. Hello, I'm reviewing records and need to know if IC50 of COC(=O)C[C@@H]1C[C@@]2(CO2)[C@H](O)[C@@H](/C=C/C(C)=C/C[C@@H]2O[C@H](C)[C@H](NC(=O)/C=C\[C@H](C)NC(=O)C(C)C)C[C@@H]2C)O1 is below 2 nM. Could you check?
A. False

Q. Answer whether the compound COC(=O)C[C@@H]1C[C@@]2(CO2)[C@H](O)[C@@H](/C=C/C(C)=C/C[C@@H]2O[C@H](C)[C@H](NC(=O)/C=C\[C@H](C)OC(C)=O)C[C@@H]2C)O1 has IC50 strictly less than 2 nM
A. True

Q. Could you please tell me whether IC50 recorded for CC(/C=C/[C@H]1O[C@H](C)C[C@@]2(CO2)[C@@H]1O)=C\C[C@@H]1O[C@H](C)[C@H](NC(=O)/C=C\[C@H](C)OC(=O)N2CCCCC2)C[C@@H]1C is less than 2 nM?
A. True

###

# test summary: Cytotoxicity against HEK293T cells assessed as inhibition in cell growth
# Format: toxicity, cell-based, HEK-293T
# details: human
Square brackets hold non-standard residues; d marks the D form. Peptide text beside a SMILES is read from it. * marks the point of attachment. Dolaproine = CO[C@@H]([C@@H]1CCCN1)[C@@H](C)C(=O)O; Dil = CC[C@H](C)[C@H](NC)[C@@H](CC(=O)O)OC; X1 = C[C@@H](N*)[C@@H](O)c1ccccc1; NMeV = CN[C@H](C(=O)O)C(C)C
property measured: IC50
Provide a numeric answer, followed by its unit.

| molecule | value observed |
| --- | --- |
| CCOC(=O)/C=C/C[C@@H]1C[C@@]2(CO2)[C@H](O)[C@@H](/C=C/C(C)=C/C[C@@H]2O[C@H](C)[C@H](NC(=O)/C=C\[C@H](C)OC(=O)C(C)C)C[C@@H]2C)O1 | 0.09 nM |
| CC(=O)O[C@@H](C)/C=C\C(=O)N[C@@H]1C[C@H](C)[C@H](C/C=C(C)/C=C/[C@H]2O[C@H](CCC#N)C[C@@]3(CO3)[C@@H]2O)O[C@@H]1C | 0.099 nM |

Here is another molecule to look at.
Q. Dear colleague, I am looking for the recorded IC50 of the following molecule: CC[C@H](C)[C@@H]([C@@H](CC(=O)N1CCC[C@H]1[C@H](OC)[C@@H](C)C(=O)N[C@H](C)[C@@H](O)c1ccccc1)OC)N(C)C(=O)[C@@H](NC(=O)[C@@H](NC)C(C)C)C(C)C (H-[NMeV]V[Dil][Dolaproine]-X1)
A. 0.068 nM
